Where do the numbers come from? From ChEMBL document CHEMBL1154643.

Each entry below lists one item and its recorded pIC50 value.
assayedTarget: Cyclin-dependent kinase 2/cyclin E (Homo sapiens)
methodDescription: Inhibition of recombinant CDK2/cyclin E
pIC50: −log10 of the molar value.
quantityKind: pIC50

| compound | qualifier | observedResult |
| --- | --- | --- |
| CCCCN[C@H]1CC[C@H](Nc2nc(NCc3ccc(-c4ccccc4)cc3)c3ncn(C(C)C)c3n2)CC1 | = | 6.52 |
| CC(C)n1cnc2c(NCc3ccc(-c4ccccc4)cc3)nc(N[C@H]3CC[C@H](NC(=O)CC4CC4)CC3)nc21 | = | 6.52 |
| Cc1ccc(-c2ccc(CNc3nc(N[C@H]4CC[C@H](N)CC4)nc4c3ncn4C(C)C)cc2)cc1C | = | 6.60 |
| CC(C)n1cnc2c(NCc3ccc(-c4ccccc4)cc3)nc(N[C@H]3CC[C@H](NS(=O)(=O)C(F)(F)F)CC3)nc21 | < | 5.30 |
| CC(C)n1cnc2c(NCc3ccc(-c4ccccc4)cc3)nc(NC3CCCC(N)C3)nc21 (stereo not drawn) | = | 6.05 |
| CC(C)n1cnc2c(NCc3ccc(-c4ccccc4)cc3)nc(NCCCN)nc21 | = | 6.40 |
| Cc1cc(C)cc(-c2ccc(CNc3nc(N[C@H]4CC[C@H](N)CC4)nc4c3ncn4C(C)C)cc2)c1 | = | 6.70 |
| CC(C)n1cnc2c(NCc3ccc(-c4ccccc4)cc3)nc(N[C@H]3CC[C@H](O)CC3)nc21 | = | 6.40 |
